The measurements presented in this section are drawn from ChEMBL document CHEMBL4673373.

procedureText: Metabolic stability in mouse liver microsomes assessed as intrinsic clearance
Assay type: ADME, Microsome
measurementParameters: read-out: CLH
# microsomal CLint values compiled below
Supply the numeric figure in µL/min/mg, leaving out any unit text.

Some entries whose results are on file:
O=C(Nc1ccc(Cl)cc1)C(=O)N1CCC2(CC1)COc1cc(C(F)F)ccc12 ... 167
N#Cc1ccc(NC(=O)C(=O)N2CCC(c3ccnc4ccc(F)cc34)CC2)cc1 ... 28
O=C(Nc1ccc(Cl)cc1)C(=O)N1CCC(c2ccnc3ccc(F)cc23)CC1 ... 97
O=C(Nc1ccc(Cl)cn1)C(=O)N1CCC(c2cccc(Cl)c2Cl)CC1 ... 77
O=C(Nc1ccc(Cl)cc1F)C(=O)N1CCCC(c2ccnc3ccc(F)cc23)CC1 (racemic) ... 202

[in] Name the recorded microsomal CLint of the item O=C(Nc1ccc(Cl)cc1F)C(=O)N1CCC(c2ccnc3ccc(F)cc23)CC1 in your answer.
[out] 108

[in] Name the recorded microsomal CLint of the item O=C(Nc1ccc(Cl)cn1)C(=O)N1CCC(c2ccnc3ccc(F)cc23)CC1 in your answer.
[out] 112

---

# IC50 values compiled below
subjectOfTest: Tryptophan 2,3-dioxygenase (Homo sapiens, UniProt P48775)
Sequence (P48775 whole entry): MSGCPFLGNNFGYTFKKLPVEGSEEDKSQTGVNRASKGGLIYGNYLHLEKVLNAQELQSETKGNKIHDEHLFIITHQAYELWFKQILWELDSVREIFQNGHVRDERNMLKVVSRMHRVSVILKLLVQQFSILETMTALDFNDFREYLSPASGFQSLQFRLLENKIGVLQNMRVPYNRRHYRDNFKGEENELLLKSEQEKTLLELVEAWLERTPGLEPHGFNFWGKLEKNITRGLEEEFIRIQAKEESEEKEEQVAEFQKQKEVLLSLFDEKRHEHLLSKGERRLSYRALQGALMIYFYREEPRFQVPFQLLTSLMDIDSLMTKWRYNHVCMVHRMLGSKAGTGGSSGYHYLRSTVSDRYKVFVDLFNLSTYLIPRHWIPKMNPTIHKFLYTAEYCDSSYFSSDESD
procedureText: Inhibition of TDO in HEK cells
Type: cell-based
Write the quantity with the unit trailing the number.

O=C(Nc1ccc(Cl)cc1F)C(=O)N1CCC(c2ccnc3ccc(F)cc23)CC1 ... 6.7 µM
O=C(Nc1ccc(Cl)cc1)C(=O)N1CC[C@@H](c2ccnc3ccc(F)cc23)[C@@H](O)C1 (stereo in doubt) ... 37 µM
O=C(Nc1ccc(Cl)cc1)C(=O)N1CC[C@H](c2ccnc3ccc(F)cc23)[C@@H](O)C1 (stereo in doubt) ... 14 µM
O=C(Nc1ccc(C(F)F)cc1)C(=O)N1CCC(c2ccnc3ccc(F)cc23)CC1 ... 5.8 µM
O=C(Nc1ccc(Cl)cc1)C(=O)N1CCC(c2ccnc3ccc(F)cc23)C(F)(F)C1 (racemic) ... 6.3 µM

[in] Name the recorded IC50 of the item O=C(Nc1ccc(Cl)cn1)C(=O)N1CCC(c2ccnc(C(F)(F)F)c2Cl)CC1 in your answer.
[out] 22 µM

[in] Name the recorded IC50 of the item O=C(Nc1ccc(Cl)cc1)C(=O)N1CC[C@@H](c2ccnc3ccc(F)cc23)[C@H](O)C1 (stereo in doubt) in your answer.
[out] 15.3 µM

[in] Name the recorded IC50 of the item O=C(Nc1ccc(C(F)(F)F)cc1)C(=O)N1CCC(c2ccnc3ccc(F)cc23)CC1 in your answer.
[out] 9.5 µM

---

subjectOfTest: UniProtKB Q12809
procedureText: Inhibition of human ERG at 10 uM relative to control
property: inhibition at 10 µM (%)
Supply the numeric figure in %, leaving out any unit text.

Some entries whose results are on file:
O=C(Nc1ccc(Cl)cc1)C(=O)N1CC[C@@H](c2ccnc3ccc(F)cc23)[C@H](O)C1 (stereo in doubt) ... 10
O=C(Nc1ccc(Cl)cc1)C(=O)N1CCC2(CC1)COc1cc(C(F)(F)F)ccc12 ... 86
N#Cc1ccc(NC(=O)C(=O)N2CCC(c3ccnc4ccc(F)cc34)CC2)cc1 ... 61
CC1(C)CN(C(=O)C(=O)Nc2ccc(Cl)cc2)CCC1c1ccnc2ccc(F)cc12 (racemic) ... 71

[in] Name the recorded inhibition at 10 µM of the item O=C(Nc1ccc(Cl)cc1)C(=O)N1CCC(c2ccnc3ccc(F)cc23)CC1 in your answer.
[out] 64

[in] Name the recorded inhibition at 10 µM of the item O=C(Nc1ccc(Cl)cc1)C(=O)N1CCC2(CC1)COc1cc(C(F)F)ccc12 in your answer.
[out] 71

---

subjectOfTest: Indoleamine 2,3-dioxygenase 1 (Homo sapiens)
procedureText: Binding affinity to IDO1 (unknown origin) assessed as change in melting temperature at 5 uM by thermal shift assay
Sequence (P14902 whole entry, looked up): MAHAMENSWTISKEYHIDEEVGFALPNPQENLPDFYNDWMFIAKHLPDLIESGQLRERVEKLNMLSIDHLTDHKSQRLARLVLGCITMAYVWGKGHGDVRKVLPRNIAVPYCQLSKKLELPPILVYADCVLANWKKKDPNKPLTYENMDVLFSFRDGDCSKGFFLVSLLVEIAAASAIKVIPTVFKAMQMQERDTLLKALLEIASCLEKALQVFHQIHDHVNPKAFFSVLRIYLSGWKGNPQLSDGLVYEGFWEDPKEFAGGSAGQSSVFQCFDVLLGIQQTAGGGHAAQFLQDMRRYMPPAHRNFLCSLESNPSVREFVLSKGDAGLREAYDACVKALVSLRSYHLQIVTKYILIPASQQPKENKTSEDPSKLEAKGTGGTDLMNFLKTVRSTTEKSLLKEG
# ΔTm values compiled below
Supply the numeric figure in °C, leaving out any unit text.

Some entries whose results are on file:
O=C(Nc1ccc(Cl)cc1)C(=O)N1CCC(c2ccccc2)CC1 ... 12
O=C(Nc1ccc(Cl)cc1)C(=O)N1CCC(c2ccnc3ccc(F)cc23)CC1 ... 14
O=C(Nc1ccc(Cl)cc1)C(=O)N1CC[C@H](c2ccnc3ccc(F)cc23)[C@@H](O)C1 (stereo in doubt) ... 13

Next up:
[in] Fill in ΔTm for O=C(Nc1ccc(F)c(Cl)c1)C(=O)N1CCC(c2ccccc2)CC1 tested with Indoleamine 2,3-dioxygenase 1 (Homo sapiens).
[out] 1

---

subjectOfTest: hERG (KCNH2) (Homo sapiens)
Sequence (Q12809 whole entry): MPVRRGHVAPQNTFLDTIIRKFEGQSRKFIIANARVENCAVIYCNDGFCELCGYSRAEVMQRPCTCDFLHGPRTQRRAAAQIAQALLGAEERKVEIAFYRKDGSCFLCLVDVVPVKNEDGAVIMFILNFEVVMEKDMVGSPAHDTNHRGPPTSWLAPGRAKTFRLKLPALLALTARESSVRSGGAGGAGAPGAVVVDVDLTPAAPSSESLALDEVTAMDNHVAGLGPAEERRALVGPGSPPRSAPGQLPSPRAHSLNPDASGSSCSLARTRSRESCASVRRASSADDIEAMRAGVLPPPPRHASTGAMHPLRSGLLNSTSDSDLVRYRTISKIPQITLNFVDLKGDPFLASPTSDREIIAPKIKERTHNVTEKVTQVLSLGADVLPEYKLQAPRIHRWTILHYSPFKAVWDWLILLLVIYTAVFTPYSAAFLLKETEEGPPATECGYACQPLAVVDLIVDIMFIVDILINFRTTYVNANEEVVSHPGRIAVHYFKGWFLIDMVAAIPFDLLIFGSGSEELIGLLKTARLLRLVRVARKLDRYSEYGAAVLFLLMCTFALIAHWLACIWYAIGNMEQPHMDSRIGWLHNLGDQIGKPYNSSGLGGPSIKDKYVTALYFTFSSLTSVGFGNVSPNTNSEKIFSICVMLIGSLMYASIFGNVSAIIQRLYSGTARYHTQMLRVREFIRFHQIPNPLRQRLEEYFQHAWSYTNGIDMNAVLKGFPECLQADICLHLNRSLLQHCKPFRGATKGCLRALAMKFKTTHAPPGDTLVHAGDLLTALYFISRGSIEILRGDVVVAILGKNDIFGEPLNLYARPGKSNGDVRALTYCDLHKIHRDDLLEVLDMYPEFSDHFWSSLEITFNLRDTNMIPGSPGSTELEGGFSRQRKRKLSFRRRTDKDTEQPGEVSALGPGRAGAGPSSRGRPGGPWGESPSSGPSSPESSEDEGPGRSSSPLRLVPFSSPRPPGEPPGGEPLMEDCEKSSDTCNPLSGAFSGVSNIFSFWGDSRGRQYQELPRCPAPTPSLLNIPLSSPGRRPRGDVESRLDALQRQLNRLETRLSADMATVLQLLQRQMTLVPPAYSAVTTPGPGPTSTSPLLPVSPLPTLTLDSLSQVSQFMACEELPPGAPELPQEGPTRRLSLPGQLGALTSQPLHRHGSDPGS
procedureText: Inhibition of human ERG at 10 uM relative to control
Class 1: inhibition at 10 µM at least 70%. Class 0: inhibition at 10 µM below 70%.

O=C(Nc1ccc(Cl)cc1)C(=O)N1CCC(c2ccnc3ccc(F)cc23)C(F)(F)C1 (racemic) ... 0
O=C(Nc1ccc(C(F)(F)F)cc1)C(=O)N1CCC(c2ccnc3ccc(F)cc23)CC1 ... 1
O=C(Nc1ccc(Cl)cc1)C(=O)N1CC[C@H](c2ccnc3ccc(F)cc23)[C@@H](O)C1 (stereo in doubt) ... 0

[in] Determine whether measured inhibition at 10 µM meets or exceeds 70% for O=C(Nc1ccc(Cl)cc1F)C(=O)N1CCCC(c2ccnc3ccc(F)cc23)CC1 (racemic)
[out] 0

[in] Determine whether measured inhibition at 10 µM meets or exceeds 70% for O=C(Nc1ccc(Cl)cc1)C(=O)N1CCC(c2ccnc3cc(F)ccc23)CC1
[out] 1

---

subjectOfTest: Indoleamine 2,3-dioxygenase 1 (Homo sapiens, UniProt P14902)
procedureText: Inhibition of IDO1 (unknown origin) by enzymatic assay
Sequence (P14902 whole entry): as the sequence (P14902 whole entry, looked up) above
property: pIC50
// pIC50: -log10(molar conc.)

Some entries whose results are on file:
CS(=O)(=O)NCCCNC(=O)/C(=N/O)Nc1ccc(F)c(Br)c1 ... 5.30
NC(=O)/C(=N/O)Nc1ccc(F)c(Cl)c1 ... 4.11

Next up:
[in] Fill in pIC50 for NS(=O)(=O)NCCCNC(=O)/C(=N/O)Nc1ccc(F)c(Cl)c1 tested with Indoleamine 2,3-dioxygenase 1 (Homo sapiens, UniProt P14902).
[out] 4.99

---

subjectOfTest: Indoleamine 2,3-dioxygenase 1 (Homo sapiens, UniProt P14902)
procedureText: Inhibition of IDO1 in human whole blood
Assay type: tissue-based
property: pIC50
// pIC50: -log10(molar conc.)

[in] Fill in pIC50 for O=C(Nc1ccc(Cl)cc1)C(=O)N1CC[C@H](c2ccnc3ccc(F)cc23)[C@@H](O)C1 (stereo in doubt) tested with Indoleamine 2,3-dioxygenase 1 (Homo sapiens, UniProt P14902).
[out] 6.48

---

procedureText: Metabolic stability in human liver microsomes assessed as intrinsic clearance
Type: ADME, Microsome
measurementParameters: read-out: CLH
property: log10 microsomal CLint (log10 of the value in µL/min/mg)
// do not treat as linear: log10 of microsomal CLint, unit µL/min/mg

Some entries whose results are on file:
O=C(Nc1ccc(C(F)F)cc1)C(=O)N1CCC(c2ccnc3ccc(F)cc23)CC1 ... 1.23
O=C(Nc1ccc(Cl)cc1)C(=O)N1CCC(c2ccnc3ccc(F)cc23)CC1 ... 0.95
N#Cc1ccc(NC(=O)C(=O)N2CCC(c3ccnc4ccc(F)cc34)CC2)cc1 ... 1.04
O=C(Nc1ccc(Cl)cc1)C(=O)N1CC[C@@H](c2ccnc3ccc(F)cc23)[C@H](O)C1 (stereo in doubt) ... 0.70
O=C(Nc1ccc(Cl)cn1)C(=O)N1CCC(c2ccnc(C(F)(F)F)c2Cl)CC1 ... 0.54

[in] Name the recorded log10 microsomal CLint of the item O=C(Nc1ccc(Cl)cn1)C(=O)N1CCC2(CC1)COc1cc(C(F)(F)F)ccc12 in your answer.
[out] 0.78

---

procedureText: Plasma protein binding in human
Type: ADME, cell-free
measurementParameters: read-out: PPB (converted)
property: fraction unbound
Form rule: numeric answer, no unit written next to it.

O=C(Nc1ccc(Cl)cc1)C(=O)N1CCC(c2ccnc3ccc(F)cc23)CC1 ... 0.003

[in] Name the recorded fraction unbound of the item O=C(Nc1ccc(Cl)cc1)C(=O)N1CC[C@H](c2ccnc3ccc(F)cc23)[C@@H](O)C1 (stereo in doubt) in your answer.
[out] 0.011

---

subjectOfTest: Indoleamine 2,3-dioxygenase 1 (Homo sapiens)
procedureText: Inhibition of IDO1 in human SKOV3 cells
Assay type: cell-based, SK-OV-3
Lab note: cut-off is 70 nM. Strictly less in IC50 is T. Exactly 70 nM or more is F.

Answered cases to consult:
O=C(Nc1ccc(F)c(Cl)c1)C(=O)N1CCC(c2ccccc2)CC1 ... F
CC1(C)CN(C(=O)C(=O)Nc2ccc(Cl)cc2)CCC1c1ccnc2ccc(F)cc12 (racemic) ... T
O=C(Nc1ccc(Cl)cc1)C(=O)N1CCC(c2ccccc2)CC1 ... F
O=C(Nc1ccc(Cl)cc1)C(=O)N1CC[C@@H](c2ccnc3ccc(F)cc23)[C@@H](O)C1 (stereo in doubt) ... F
NC(=O)/C(=N/O)Nc1ccc(F)c(Cl)c1 ... F

[in] Consider O=C(Nc1ccc(C(F)F)cc1)C(=O)N1CCC(c2ccnc3ccc(F)cc23)CC1 . Does its IC50 lie strictly below 70 nM?
[out] T

[in] Consider O=C(Nc1ccc(Cl)cc1)C(=O)N1CC[C@H](c2ccnc3ccc(F)cc23)[C@@H](O)C1 (stereo in doubt) . Does its IC50 lie strictly below 70 nM?
[out] T

[in] Consider O=C(Nc1ccc(Cl)cn1)C(=O)N1CCC2(CC1)COc1cc(C(F)(F)F)ccc12 . Does its IC50 lie strictly below 70 nM?
[out] F

[in] Consider NS(=O)(=O)NCCCNC(=O)/C(=N/O)Nc1ccc(F)c(Cl)c1 . Does its IC50 lie strictly below 70 nM?
[out] F
